The measured values listed here are drawn from patent US11384075B2.

Target: NIH/3T3 cells overexpressing FGFR3 V555M-TACC3 fusion protein (Homo sapiens, UniProt P22607, V555M, cells depend on it)
Construct: NIH/3T3 FGFR3 V555M-TACC3 CTG (IC50); other: 72-hr incubation, CellTiter Glo, starting with 10 μM; fused on or other part: Q9Y6A5 (Transforming acidic coiled-coil-containing protein 3)
Sequence (P22607 whole entry V555M, the tested form may be a part): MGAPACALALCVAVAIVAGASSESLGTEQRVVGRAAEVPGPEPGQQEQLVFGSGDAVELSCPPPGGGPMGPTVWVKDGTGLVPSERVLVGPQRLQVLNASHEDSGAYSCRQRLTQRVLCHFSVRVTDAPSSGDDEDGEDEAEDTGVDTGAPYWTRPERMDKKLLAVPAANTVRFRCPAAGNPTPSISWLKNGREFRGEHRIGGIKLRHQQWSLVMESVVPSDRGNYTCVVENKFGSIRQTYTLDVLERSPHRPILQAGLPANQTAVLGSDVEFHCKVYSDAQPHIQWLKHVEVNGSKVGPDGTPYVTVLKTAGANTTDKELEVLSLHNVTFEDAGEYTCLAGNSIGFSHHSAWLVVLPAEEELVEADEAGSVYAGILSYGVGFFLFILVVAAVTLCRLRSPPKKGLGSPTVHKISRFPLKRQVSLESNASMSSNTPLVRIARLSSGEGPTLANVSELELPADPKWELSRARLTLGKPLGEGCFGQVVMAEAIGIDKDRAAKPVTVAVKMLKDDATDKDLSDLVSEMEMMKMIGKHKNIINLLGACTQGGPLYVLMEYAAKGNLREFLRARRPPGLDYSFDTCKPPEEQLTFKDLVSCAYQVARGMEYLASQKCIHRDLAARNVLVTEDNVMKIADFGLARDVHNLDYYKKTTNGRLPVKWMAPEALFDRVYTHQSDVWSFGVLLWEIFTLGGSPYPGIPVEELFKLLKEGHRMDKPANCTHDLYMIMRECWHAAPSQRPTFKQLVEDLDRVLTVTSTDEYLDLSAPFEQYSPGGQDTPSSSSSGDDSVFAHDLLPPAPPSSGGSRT
Assay: NIH/3T3 FGFR3 V555M-TACC3 cell proliferation assay
Type: cell-based
Settings: 72-hr incubation, CellTiter Glo, starting with 10 μM; read-out: NIH/3T3 FGFR3 V555M-TACC3 CTG (IC50)
Recorded measurements of GI50, one per entry
The reply should consist of the numeric value with the unit placed after it.

1) CC(Nc1c(-c2nc3ccc(N4C[C@@H](C)O[C@@H](C)C4)cc3[nH]2)c(=O)[nH]c2ccccc12)c1ncccn1 (single isomer, unassigned) [Compound 22a] :: 6.48 nM
2) CC(Nc1c(-c2nc3ccc(N4CC5CCC(C4)O5)cc3[nH]2)c(=O)[nH]c2ccccc12)c1ncccn1 (single isomer, unassigned) [Compound 44a] :: 3.98 nM

Now examine the next entry.
In plain terms, COC(=O)C1CN(c2ccc3nc(-c4c(N[C@@H](C)c5ccccn5)c5ccccc5[nH]c4=O)[nH]c3c2)CCO1 (single isomer, unassigned) [Compound 61] has a documented GI50 of 111 nM

====

Biological target: NIH/3T3 cells overexpressing FGFR3 WT-TACC3 fusion protein (Homo sapiens)
Construct: NIH/3T3 FGFR3 WT-TACC3 CTG (IC50); other: 72-hr incubation, CellTiter Glo, starting with 10 μM; fused on or other part: Q9Y6A5 (Transforming acidic coiled-coil-containing protein 3)
Assay: NIH/3T3 FGFR3 WT-TACC3 cell proliferation assay
Type: cell-based
Conditions: 72-hr incubation, CellTiter Glo, starting with 10 μM; read-out: NIH/3T3 FGFR3 WT-TACC3 CTG (IC50)
PARAMETER MEASURED: log10(GI50) (log10 of the value in nM)
In plain terms, each number is the log10 of measured GI50 in nM.

As a guide, the following entries are already answered.
1. C[C@H](Nc1c(-c2nc3ccc(N4CCC(C(=O)O)CC4)cc3[nH]2)c(=O)[nH]c2ccccc12)c1ccccn1 [Compound 6] :: 1.51
2. CC(Nc1c(-c2nc3cc(C(F)(F)F)c(N4CCC(C(=O)O)CC4)cc3[nH]2)c(=O)[nH]c2ccccc12)c1ncccn1 (single isomer, unassigned) [Compound 58] :: 0.62
3. CCCC(Nc1c(-c2nc3ccc(N4CCOCC4)cc3[nH]2)c(=O)[nH]c2ccccc12)c1ncccn1 (single isomer, unassigned) [Compound 31a] :: 1.41
4. CCC(Nc1c(-c2nc3ccc(N4CCOCC4)cc3[nH]2)c(=O)[nH]c2ccccc12)c1ncccn1 (single isomer, unassigned) [Compound 30a] :: 0.86
5. CC(Nc1c(-c2nc3ccc(N4CCN(C)CC4)c(F)c3[nH]2)c(=O)[nH]c2ccccc12)c1ccccn1 (single isomer, unassigned) [Compound 13b] :: 0.54

Entry Cc1c(N2CCOCC2)ccc2nc(-c3c(N[C@@H](C)c4ncccn4)c4ccccc4[nH]c3=O)[nH]c12 [Compound 47] , log10(GI50) reported as 1.20

Noted for COC(=O)C1CN(c2ccc3nc(-c4c(N[C@@H](C)c5ccccn5)c5ccccc5[nH]c4=O)[nH]c3c2)CCO1 (single isomer, unassigned) [Compound 61] : its log10(GI50) reads 2.05

# compound C[C@H](Nc1c(-c2nc3ccc(C(=O)N4CCOCC4)cc3[nH]2)c(=O)[nH]c2ccccc12)c1ccccn1 [Compound 20] ; its log10(GI50) = 1.37

Reported log10(GI50) for Cc1ccnc(C(C)Nc2c(-c3nc4ccc(N5CCOCC5)cc4[nH]3)c(=O)[nH]c3ccccc23)n1 (single isomer, unassigned) [Compound 34a] was 1.63

The compound listed as C[C@H](Nc1c(-c2nc3ccc(N4CCN(C)C(=O)C4)cc3[nH]2)c(=O)[nH]c2ccccc12)c1ccccn1 [Compound 15] shows log10(GI50) equal to 1.09

The reported value for COC(=O)C1CCN(c2ccc3nc(-c4c(N[C@@H](C)c5ccccn5)c5ccccc5[nH]c4=O)[nH]c3c2)CC1 [Compound 7] in terms of log10(GI50) is 1.30

So for C[C@H](Nc1c(-c2nc3ccc(N4CCCCC4)cc3[nH]2)c(=O)[nH]c2ccccc12)c1ncccn1 (single isomer, unassigned) [Compound 28a] , the logged log10(GI50) turned out to be 0.74

====

Test system: NIH/3T3 cells transfected with the same control vector
Assay: NIH/3T3 mock cell proliferation assay (counter assay, general toxicity)
Assay type: cell-based
Conditions: Mus musculus, NIH3T3, 72 h, 72-hr incubation, CellTiter Glo, starting with 30 μM; counter assay for general toxicity; read-out: NIH/3T3 MOCK CTG (IC50)
Decide using IC50 alone. Strictly below 3000 nM: Fulfilled. Equal to or above 3000 nM: Not fulfilled.

Would you please look over these solved cases?
1. CC(Nc1c(-c2nc3ccc(N4C[C@@H](C)O[C@H](C)C4)cc3[nH]2)c(=O)[nH]c2ccccc12)c1ncccn1 (single isomer, unassigned) [Compound 37a] :: Fulfilled
2. C[C@H](Nc1c(-c2nc3cc(C(F)(F)F)c(N(C)C4CCN(C)CC4)cc3[nH]2)c(=O)[nH]c2ccccc12)c1ccccn1 :: Fulfilled
3. Cc1ccnc(C(C)Nc2c(-c3nc4ccc(N5CCOCC5)cc4[nH]3)c(=O)[nH]c3ccccc23)n1 (single isomer, unassigned) [Compound 34a] :: Fulfilled
4. C[C@H](Nc1c(-c2nc3ccc(N4CCOCC4)cc3[nH]2)c(=O)[nH]c2c(F)cccc12)c1ccccn1 :: Fulfilled
5. C[C@@H](Nc1c(-c2nc3ccc(N4CCOCC4)cc3[nH]2)c(=O)[nH]c2ccccc12)c1ncccn1 :: Not fulfilled
6. Cc1c(N2CCOCC2)ccc2nc(-c3c(N[C@@H](C)c4ncccn4)c4ccccc4[nH]c3=O)[nH]c12 :: Fulfilled

IC50 strictly < 3000 nM for this molecule? COc1ccnc(C(C)Nc2c(-c3nc4ccc(N5CCOCC5)cc4[nH]3)c(=O)[nH]c3ccccc23)c1 (single isomer, unassigned) [Compound 48a]
Not fulfilled

Determine if C[C@H](Nc1c(-c2nc3cc(C(F)(F)F)c(NC4CCN(C)CC4)cc3[nH]2)c(=O)[nH]c2ccccc12)c1ccccn1 shows IC50 strictly lower than 3000 nM.
Fulfilled

Lab note: confirm whether the reported IC50 for this molecule is below 3000 nM, equality not counting. molecule: Cc1cc(N2CCOCC2)cc2[nH]c(-c3c(N[C@@H](C)c4ncccn4)c4ccccc4[nH]c3=O)nc12
Not fulfilled

Would you kindly verify if IC50 of COC(=O)C1CCN(c2ccc3nc(-c4c(N[C@@H](C)c5ccccn5)c5ccccc5[nH]c4=O)[nH]c3c2)CC1 is strictly less than 3000 nM?
Fulfilled

State whether 3000 nM exceeds IC50 recorded for CC(Nc1c(-c2nc3ccc(N4CCOCC4)cc3[nH]2)c(=O)[nH]c2ccccc12)c1cnccn1 (single isomer, unassigned) [Compound 35b] .
Fulfilled

====

Reported values of IC50 for individual entries
System: NIH/3T3 cells transfected with the same control vector
Assay: NIH/3T3 mock cell proliferation assay (counter assay, general toxicity)
Format: cell-based
Conditions: Mus musculus, NIH3T3, 72 h, 72-hr incubation, CellTiter Glo, starting with 30 μM; counter assay for general toxicity; read-out: NIH/3T3 MOCK CTG (IC50)
For clarity, give the value followed by its unit.

Examples with their reported IC50 follow.
1) CC(Nc1c(-c2nc3ccc(N4CCOCC4)c(F)c3[nH]2)c(=O)[nH]c2ccccc12)c1ncccn1 (single isomer, unassigned) [Compound 23a] :: 15.3 µM
2) CC(Nc1c(-c2nc3cc(C(F)(F)F)c(N4CCN(C)CC4)cc3[nH]2)c(=O)[nH]c2ccccc12)c1ncccn1 (single isomer, unassigned) [Compound 25a] :: 2.26 µM

Here's the next entry for you.
The compound listed as C[C@@H]1CN(c2ccc3nc(-c4c(N[C@@H](C)c5ccccn5)c5ccccc5[nH]c4=O)[nH]c3c2)C[C@@H](C)O1 has a reported IC50 of 13.6 µM

====

Target: NIH/3T3 cells overexpressing FGFR3 WT-TACC3 fusion protein (Homo sapiens, UniProt P22607)
Construct: NIH/3T3 FGFR3 WT-TACC3 CTG (IC50); other: 72-hr incubation, CellTiter Glo, starting with 10 μM; fused on or other part: Q9Y6A5 (Transforming acidic coiled-coil-containing protein 3)
Sequence (P22607 whole entry, change not shown, the tested form may be a part): as the sequence (P22607 whole entry V555M, the tested form may be a part) above, with M555V counted along it
Experiment: NIH/3T3 FGFR3 WT-TACC3 cell proliferation assay
Type: cell-based
Conditions: 72-hr incubation, CellTiter Glo, starting with 10 μM; read-out: NIH/3T3 FGFR3 WT-TACC3 CTG (IC50)
I'd appreciate it if you marked entries Y when GI50 is lower than 0.02 µM and N when it is not.

Would you please look over these solved cases?
1) CC(C)C(Nc1c(-c2nc3ccc(N4CCOCC4)cc3[nH]2)c(=O)[nH]c2ccccc12)c1ncccn1 (single isomer, unassigned) [Compound 32a] :: Y
2) CC(Nc1c(-c2nc3cc(C(F)(F)F)c(N4CCN(C)CC4)cc3[nH]2)c(=O)[nH]c2ccccc12)c1ncccn1 (single isomer, unassigned) [Compound 25a] :: Y

Quick check: does C[C@H](Nc1c(-c2nc3cc(C(F)(F)F)c(NC4CCN(C)CC4)cc3[nH]2)c(=O)[nH]c2ccccc12)c1ccccn1 have GI50 under 0.02 µM?
N

Say whether its GI50 is strictly beneath 0.02 µM. Entry: CC(Nc1c(-c2nc3ccc(N4CCOCC4)cc3[nH]2)c(=O)[nH]c2ccccc12)c1cscn1 (single isomer, unassigned) [Compound 52a]
N

# strict comparison: is reported GI50 < 0.02 µM? input = CC(Nc1c(-c2nc3ccc(N4CC5CCC(C4)O5)cc3[nH]2)c(=O)[nH]c2ccccc12)c1ncccn1 (single isomer, unassigned) [Compound 44a]
Y
